Tested on: COLO 205 colon
Assay: NCI tumour cell line growth inhibition, 48 h

| compound | experimentalTarget | TGI |
| --- | --- | --- |
| S=C(Nc1c2c(nc3ccccc13)CCCC2)Nc1c2c(nc3ccccc13)CCCC2 | COLO 205 colon | > 100 µM |
| Cc1ccc(C[N+](C)(C)N)cc1C | COLO 205 colon | > 10 µM |
| CC(C)(C)c1ccc(O)c(C[N+](C)(C)C)c1 | COLO 205 colon | > 100 µM |
| CCN(C1=CC(=O)NC2CCCCN12)c1ccccc1 (stereo not given) | COLO 205 colon | > 100 µM |
| O=c1nc2sc3ccc4ccccc4c3n2nc1-c1ccccc1 | COLO 205 colon | > 100 µM |
| CCNC(=S)NNC(=O)c1nsc2ccccc12 | COLO 205 colon | > 100 µM |
| O=C1C=CC(=O)c2c(O)c(CO)c(CO)c(O)c21 | COLO 205 colon | 0.171 µM |
| CC1CC2=C(C(=O)O1)C(c1ccccc1)Nc1ccccc1N2 (stereo not given) | COLO 205 colon | > 100 µM |
| COc1ccc(C(OCC2OC(n3cnc4c(=O)n(Cc5ccccc5[N+](=O)[O-])nnc43)C(O)C2O)(c2ccccc2)c2ccc(OC)cc2)cc1 (stereo not given) | COLO 205 colon | 34.5 µM |
| O=c1c2ccccc2nc(/C=C(\O)c2ccccc2)n1-c1ccccc1Cl | COLO 205 colon | > 100 µM |
| C=C(C)[C@@H]1CC[C@]2(CNCCO)CC[C@]3(C)[C@H](CC[C@@H]4[C@@]5(C)CCC(N)[C@@](C)(CO)[C@@H]5CC[C@]43C)[C@@H]12 (stereo not given in full) | COLO 205 colon | 3.08 µM |
| CCOC1=CP(=O)(OCC)CC(C)=C1Cl (stereo not given) | COLO 205 colon | 25.2 µM |
| CC/C(CC(=O)CCC(=O)Nc1c(C)cccc1C)=N\NC(=O)NN | COLO 205 colon | > 100 µM |
| C[C@]12CC(c3ccccc3O1)C(C(N)=O)C(=O)N2 (stereo not given in full) | COLO 205 colon | > 100 µM |
| COc1cc(OC)cc(Oc2nc3cc(N)cc(N)c3nc2-c2ccccc2)c1 | COLO 205 colon | 22.4 µM |
| O=C(Cc1csc2nc(-c3ccc(Br)cc3)cn12)N/N=C/c1cc(Br)ccc1O | COLO 205 colon | > 100 µM |
| COc1cc(C(=O)/C=C/c2c(-c3cccs3)nc3sc(C)cn23)cc(OC)c1OC | COLO 205 colon | > 100 µM |
| COc1ccc2c(CCC(c3ccccc3)c3ccccc3)c3[n+](cc2c1OC)CCc1cc2c(cc1-3)OCO2 | COLO 205 colon | 0.619 µM |
| Cc1ccc(S(=O)(=O)N/N=C(/CC(=O)c2c(C)n([O-])c3ccccc3[n+]2=O)C(=O)Nc2ccc(C)c(C)c2)cc1 | COLO 205 colon | > 100 µM |
| O=C(C(=NC12CC3CC(CC(C3)C1)C2)NNc1ccc([N+](=O)[O-])cc1[N+](=O)[O-])C(Br)C(=O)c1ccccc1 (stereo not given) | COLO 205 colon | 4.23 µM |
